These data points were gathered from patent US20230080534A1.

MEASUREMENT TARGET: T1, QIEKLVAGKSQIQ (not fully specified)
T1 construct: member of the group m41; the text speaks of glycine substitution, the sheet prints alanine
T1 peptide: QIEKLVAGKSQIQ
PROCEDURE TEXT: ELISA, immobilized peptide QIEKLVAGKSQIQ
No end group written: not given here.
READOUT NAME: OD450 absorbance
Reply with just the number.

Request: Would you mind telling me what OD450 absorbance value was observed for MM02 (antibody, IgG2b, V domains shown) VH: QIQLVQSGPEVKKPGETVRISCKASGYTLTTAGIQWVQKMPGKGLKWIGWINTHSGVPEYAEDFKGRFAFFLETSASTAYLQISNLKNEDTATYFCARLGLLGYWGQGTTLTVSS VL: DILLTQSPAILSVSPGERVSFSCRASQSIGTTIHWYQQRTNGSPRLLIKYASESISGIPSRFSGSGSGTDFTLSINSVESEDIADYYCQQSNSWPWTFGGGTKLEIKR ?
Result: 0.48
